Test system: Mycobacterium tuberculosis Erdman (autoluminescent)
assay: FIC90 (Loewe) at 90% inhibition (log2); higher = more antagonistic
testContext: in vitro model: valerate; time point: terminal (~4-5 doublings, model-specific)
Provide the recorded FIC90 for the entries that follow.

stdin: Look up FIC90 for this compound: CC(C)/N=c1\cc2n(-c3ccc(Cl)cc3)c3ccccc3nc-2cc1Nc1ccc(Cl)cc1 [clofazimine] + CC(=O)NC[C@H]1CN(c2ccc(N3CCOCC3)c(F)c2)C(=O)O1 [linezolid]
stdout: 0.597

stdin: # input compound: NNC(=O)c1ccncc1 [isoniazid] + NC(=O)c1cnccn1 [pyrazinamide] ; wanted: its FIC90
stdout: 0.67

stdin: Which measured FIC90 value corresponds to CC(=O)NC[C@H]1CN(c2ccc(N3CCOCC3)c(F)c2)C(=O)O1 [linezolid] + CO[C@H]1/C=C/O[C@@]2(C)Oc3c(C)c(O)c4c(O)c(c(/C=N/N5CCN(C)CC5)c(O)c4c3C2=O)NC(=O)/C(C)=C\C=C\[C@H](C)[C@H](O)[C@@H](C)[C@@H](O)[C@@H](C)[C@H](OC(C)=O)[C@@H]1C [rifampicin] ?
stdout: -0.411

stdin: Form field: reported FIC90 of CC(C)/N=c1\cc2n(-c3ccc(Cl)cc3)c3ccccc3nc-2cc1Nc1ccc(Cl)cc1 [clofazimine] + CO[C@H]1/C=C/O[C@@]2(C)Oc3c(C)c(O)c4c(O)c(c(/C=N/N5CCN(C6CCCC6)CC5)c(O)c4c3C2=O)NC(=O)/C(C)=C\C=C\[C@H](C)[C@H](O)[C@@H](C)[C@@H](O)[C@@H](C)[C@H](OC(C)=O)[C@@H]1C [rifapentine]
stdout: 0.667
